# system-under-test: Glucocorticoid receptor (Homo sapiens) (UniProt P04150)
# Sequence (P04150 whole entry): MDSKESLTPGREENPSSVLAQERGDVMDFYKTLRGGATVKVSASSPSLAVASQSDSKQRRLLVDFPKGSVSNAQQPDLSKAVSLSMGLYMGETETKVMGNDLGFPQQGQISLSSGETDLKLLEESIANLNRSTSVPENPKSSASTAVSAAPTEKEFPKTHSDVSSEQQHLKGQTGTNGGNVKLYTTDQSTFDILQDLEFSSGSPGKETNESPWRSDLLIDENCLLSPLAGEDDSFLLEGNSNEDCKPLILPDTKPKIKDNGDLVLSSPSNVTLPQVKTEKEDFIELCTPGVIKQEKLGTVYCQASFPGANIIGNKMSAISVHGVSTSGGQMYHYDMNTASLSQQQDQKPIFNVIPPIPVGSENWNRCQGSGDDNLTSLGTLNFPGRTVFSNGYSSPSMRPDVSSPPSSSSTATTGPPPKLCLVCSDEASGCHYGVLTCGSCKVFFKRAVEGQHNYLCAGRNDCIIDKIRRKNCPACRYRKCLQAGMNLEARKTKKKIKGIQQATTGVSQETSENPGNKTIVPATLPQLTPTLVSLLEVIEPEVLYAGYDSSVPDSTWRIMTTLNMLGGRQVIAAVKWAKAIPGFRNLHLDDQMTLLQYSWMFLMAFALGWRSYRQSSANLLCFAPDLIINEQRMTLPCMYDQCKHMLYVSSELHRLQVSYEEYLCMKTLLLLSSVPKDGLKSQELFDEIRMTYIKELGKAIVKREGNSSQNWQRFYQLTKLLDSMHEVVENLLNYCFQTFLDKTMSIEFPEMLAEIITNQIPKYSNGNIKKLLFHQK
# assay: Transrepression of GCR in human HeLa cells assessed as down regulation of GILZ mRNA expression at 0.4 uM after 24 hrs by Taqman-based real-time PCR analysis
# Assay type: cell-based
The source made the active and inactive calls. The rule behind the calls is not given here.
outcome-measure: Activity

> print(dat)
                            smiles.string                         system.under.test  observed.value
1       NCc1ccc(-c2cn3c(n2)sc2ccccc23)cc1  Glucocorticoid receptor (Homo sapiens) (UniProt P04150)          Active
2   O=C(O)c1ccc(-c2cn3c4c(sc3n2)CCCC4)cc1  Glucocorticoid receptor (Homo sapiens) (UniProt P04150)          Active
3  COC(=O)c1ccc(-c2cn3c4c(sc3n2)CCCC4)cc1  Glucocorticoid receptor (Homo sapiens) (UniProt P04150)          Active
4      N#Cc1ccc(-c2cn3c4c(sc3n2)CCCC4)cc1  Glucocorticoid receptor (Homo sapiens) (UniProt P04150)          Active
5  N#Cc1ccc(-c2cn3c4c(sc3n2)C(=O)CCC4)cc1  Glucocorticoid receptor (Homo sapiens) (UniProt P04150)          Active

---

# System: HeLa
# assay: Cytotoxicity against human HeLa cells after 72 hrs by MTT assay
# Assay type: cell-based
outcome-measure: EC50 (µM)

> print(dat)
                            smiles.string  system.under.test  outcome.measure  unit.descriptor  observed.value
1      N#Cc1ccc(-c2cn3c4c(sc3n2)CCCC4)cc1               HeLa             EC50               µM             1.7
2   O=C(O)c1ccc(-c2cn3c4c(sc3n2)CCCC4)cc1               HeLa             EC50               µM             170
3  COC(=O)c1ccc(-c2cn3c4c(sc3n2)CCCC4)cc1               HeLa             EC50               µM             7.7
4       NCc1ccc(-c2cn3c(n2)sc2ccccc23)cc1               HeLa             EC50               µM             3.6
5  N#Cc1ccc(-c2cn3c4c(sc3n2)C(=O)CCC4)cc1               HeLa             EC50               µM              16

---

# system-under-test: Glucocorticoid receptor (Homo sapiens) (UniProt P04150)
# assay: Transrepression of GCR (unknown origin) expressed in human fibrosarcoma cells assessed as inhibition of DEX-induced GCR activation at 0.1 uM after 6 hrs by luciferase reporter gene assay relative to DEX; values are per cent of control
Assign T whenever residual activity does not fall below 20%; assign F whenever it does.

> print(dat)
                          smiles.string  answer.label
1     OCc1ccc(-c2cn3c(n2)sc2ccccc23)cc1             T
2    N#Cc1ccc(-c2cn3c4c(sc3n2)CCCC4)cc1             F
3      Cc1ccc(-c2cn3c(n2)sc2ccccc23)cc1             T
4  CCn1c2ccccc2n2cc(-c3ccc(C#N)cc3)nc12             T
5      Nc1ccc(-c2cn3c(n2)sc2ccccc23)cc1             T
